- EXPERIMENT_NOTES: Plasma concentration in rats after intravenous administration (HPLC)
- CONDITION_INFO: rat, plasma, iv, 1 mg/kg
Counter-ions that a name gives are not always drawn.
PARAMETER: concentration at 0.75 h (ng/mL)
The reply should be a number in ng/mL, with the unit left off.

QUERY: Quick one: concentration at 0.75 h of N=C(N)c1cccc(CC(NS(=O)(=O)c2ccc3ccccc3c2)C(=O)N2Cc3ccccc3CC2C(=O)O)c1 (racemic) [Compound 134] ?
RESULT: 78

QUERY: Given N=C(N)c1cccc(CC(NS(=O)(=O)c2ccc3ccccc3c2)C(=O)N2CCC(C(=O)O)CC2)c1 (racemic) [Compound 85] , state its recorded concentration at 0.75 h.
RESULT: 176

QUERY: Which measured concentration at 0.75 h value corresponds to NCc1cccc(CC(NS(=O)(=O)c2ccc3ccccc3c2)C(=O)N2CCC(C(=O)O)CC2)c1 (racemic) [Compound 186] ?
RESULT: 205

QUERY: Requested field: concentration at 0.75 h. Item: N=C(N)c1cccc(C[C@H](NS(=O)(=O)c2ccc3ccccc3c2)C(=O)N2CCC[C@@H]2C(=O)O)c1 [Compound 123, hydrochloride]
RESULT: 185

QUERY: Name the recorded concentration at 0.75 h for N=C(N)c1cccc(CC(NS(=O)(=O)c2ccc3ccccc3c2)C(=O)N2CCCCC2C(=O)O)c1 (racemic) [Compound 83] .
RESULT: 115

QUERY: Using the record for N=C(NO)c1cccc(CC(NS(=O)(=O)c2ccc3ccccc3c2)C(=O)N2Cc3ccccc3CC2C(=O)O)c1 (racemic) [Compound 190, hydroiodide] , report its concentration at 0.75 h.
RESULT: 134
